Please go through the items and note down their self-cleavage kobs at 10000 uM GlcN6P.
B1: glmS ribozyme (parent)
chain: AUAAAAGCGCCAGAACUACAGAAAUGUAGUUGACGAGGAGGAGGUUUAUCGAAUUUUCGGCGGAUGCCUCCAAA

# Variants of: B1
# assayProtocol: self-cleavage kobs at 10000 uM GlcN6P; higher = faster cleavage; RNA array
# appliedConditions: with glucosamine-6-phosphate
Fewer inactive variants are shown than the library holds.

Dear reader, for each entry below, please note its self-cleavage kobs at 10000 uM GlcN6P.
1. G7U C19A A36G A39C
2. G29U G60U
3. C8U U55C
4. C10U C11U U56G G62U
5. U30A G51U U54A
6. G32U G62U
7. C10A C11A G44A

Solution:
1. < 1e-05 s⁻¹
2. < 1e-05 s⁻¹
3. < 1e-05 s⁻¹
4. < 1e-05 s⁻¹
5. < 1e-05 s⁻¹
6. < 1e-05 s⁻¹
7. < 1e-05 s⁻¹

I need self-cleavage kobs at 10000 uM GlcN6P for every entry listed below, if you could help.
1. A15G C16U G51U
2. G35C C68A C71U

Solution:
1. < 1e-05 s⁻¹
2. < 1e-05 s⁻¹
